System: CCRF-CEM
Test: Growth inhibition of human CCRF-CEM cells assessed as cell growth at 10^-7 M by sulforhodamine B assay
Format: functional
Details: read-out: Activity
Observation Type: growth at 0.1 µM (%)
Write the answer as a number in %, unit excluded.

[ask] Value lookup for growth at 0.1 µM; key = CC(C)=CC(=O)O[C@@H]1CC(C)(C)C[C@H]2C3=CC[C@@H]4[C@@]5(C)CC[C@H](O)C(C)(C)[C@@H]5CC[C@@]4(C)[C@]3(C)CC[C@@]12C(=O)O
[reply] 102

[ask] growth at 0.1 µM lookup needed for C/C=C(/C)C(=O)O[C@@H]1CC(C)(C)C[C@H]2C3=CC[C@@H]4[C@@]5(C)CCC(=O)C(C)(C)[C@@H]5CC[C@@]4(C)[C@]3(C)CC[C@@]12C(=O)O , thanks.
[reply] 97

[ask] Consider the compound shown here: CC1(C)C[C@@H](O)[C@]2(C(=O)O)CC[C@]3(C)C(=CC[C@@H]4[C@@]5(C)C/C(=C\C=C\c6ccccc6)C(=O)C(C)(C)[C@@H]5CC[C@]43C)[C@@H]2C1 What is its recorded growth at 0.1 µM?
[reply] 102

[ask] Can you look up the measured growth at 0.1 µM of CC(C)=CC(=O)O[C@@H]1CC(C)(C)C[C@H]2C3=CC[C@@H]4[C@@]5(C)CCC(=O)C(C)(C)[C@@H]5CC[C@@]4(C)[C@]3(C)CC[C@@]12C(=O)O for me?
[reply] 99

[ask] Look up growth at 0.1 µM: C/C=C(/C)C(=O)O[C@@H]1CC(C)(C)C[C@H]2C3=CC[C@@H]4[C@@]5(C)CC[C@H](O)C(C)(C)[C@@H]5CC[C@@]4(C)[C@]3(C)CC[C@@]12C(=O)O
[reply] 100

---

Tested on: A498
Assay: Growth inhibition of human A498 cells by sulforhodamine B assay
Type: functional
Conditions: read-out: pLC50 (the source's name) (converted)
Could you please report measured CC50 for the items listed next?
Return type: number; implicit unit µM.

[ask] Give A498 CC50 for C/C=C(/C)C(=O)O[C@@H]1CC(C)(C)C[C@H]2C3=CC[C@@H]4[C@@]5(C)CC[C@H](O)C(C)(C)[C@@H]5CC[C@@]4(C)[C@]3(C)CC[C@@]12C(=O)O
[reply] 7.41

[ask] Find CC50 (A498) for the entry CC(C)=CC(=O)O[C@@H]1CC(C)(C)C[C@H]2C3=CC[C@@H]4[C@@]5(C)CC[C@H](O)C(C)(C)[C@@H]5CC[C@@]4(C)[C@]3(C)CC[C@@]12C(=O)O
[reply] 41.7

[ask] Query the reported CC50 for A498; item: CC1(C)C[C@@H](O)[C@]2(C(=O)O)CC[C@]3(C)C(=CC[C@@H]4[C@@]5(C)C/C(=C\C=C\c6ccccc6)C(=O)C(C)(C)[C@@H]5CC[C@]43C)[C@@H]2C1
[reply] 35.5

---

Assay: Growth inhibition of human Hs 578T cells assessed as cell growth at 10 uM by sulforhodamine B assay
Type: functional
Settings: read-out: Activity
Observation Type: growth at 10 µM
A complete answer gives the number followed by the unit.

[ask] Quick one: growth at 10 µM of C/C=C(/C)C(=O)O[C@@H]1CC(C)(C)C[C@H]2C3=CC[C@@H]4[C@@]5(C)CC[C@H](O)C(C)(C)[C@@H]5CC[C@@]4(C)[C@]3(C)CC[C@@]12C(=O)O ?
[reply] -17.2%

[ask] # query: growth at 10 µM of entry C/C=C(/C)C(=O)O[C@@H]1CC(C)(C)C[C@H]2C3=CC[C@@H]4[C@@]5(C)CCC(=O)C(C)(C)[C@@H]5CC[C@@]4(C)[C@]3(C)CC[C@@]12C(=O)O
[reply] 78.8%

[ask] Please look up its growth at 10 µM: CC(C)=CC(=O)O[C@@H]1CC(C)(C)C[C@H]2C3=CC[C@@H]4[C@@]5(C)CC[C@H](O)C(C)(C)[C@@H]5CC[C@@]4(C)[C@]3(C)CC[C@@]12C(=O)O
[reply] 85.5%

---

Test system: PC-3
Test: Growth inhibition of human PC3 cells by sulforhodamine B assay
Type: functional
Conditions: read-out: pTGI (converted)
Observation Type: TGI (µM)
Please reply with the bare figure in µM and do not write the unit itself.

[ask] Suppose we examine the compound CC1(C)C[C@@H](O)[C@]2(C(=O)O)CC[C@]3(C)C(=CC[C@@H]4[C@@]5(C)C/C(=C\C=C\c6ccccc6)C(=O)C(C)(C)[C@@H]5CC[C@]43C)[C@@H]2C1 ; what TGI value has been reported?
[reply] 16.2

[ask] Recorded TGI of C/C=C(/C)C(=O)O[C@@H]1CC(C)(C)C[C@H]2C3=CC[C@@H]4[C@@]5(C)CC[C@H](O)C(C)(C)[C@@H]5CC[C@@]4(C)[C@]3(C)CC[C@@]12C(=O)O , please.
[reply] 2.82

[ask] So what does the record say about TGI for CC(C)=CC(=O)O[C@@H]1CC(C)(C)C[C@H]2C3=CC[C@@H]4[C@@]5(C)CCC(=O)C(C)(C)[C@@H]5CC[C@@]4(C)[C@]3(C)CC[C@@]12C(=O)O ?
[reply] 89.1

[ask] Endpoint output: TGI of CC(C)=CC(=O)O[C@@H]1CC(C)(C)C[C@H]2C3=CC[C@@H]4[C@@]5(C)CC[C@H](O)C(C)(C)[C@@H]5CC[C@@]4(C)[C@]3(C)CC[C@@]12C(=O)O . Value?
[reply] 21.9

---

Test system: OVCAR-5
Test: Growth inhibition of human OVCAR5 cells by sulforhodamine B assay
Type: functional
Settings: read-out: pTGI (converted)
Kindly supply the reported TGI values for the records listed here.
Report as a plain number; the unit µM is understood.

[ask] Consider the compound CC(C)=CC(=O)O[C@@H]1CC(C)(C)C[C@H]2C3=CC[C@@H]4[C@@]5(C)CCC(=O)C(C)(C)[C@@H]5CC[C@@]4(C)[C@]3(C)CC[C@@]12C(=O)O and give its measured TGI.
[reply] 32.4

[ask] Suppose we examine the compound CC1(C)C[C@@H](O)[C@]2(C(=O)O)CC[C@]3(C)C(=CC[C@@H]4[C@@]5(C)C/C(=C\C=C\c6ccccc6)C(=O)C(C)(C)[C@@H]5CC[C@]43C)[C@@H]2C1 ; what TGI value has been reported?
[reply] 10.5

[ask] Which TGI value is on record for C/C=C(/C)C(=O)O[C@@H]1CC(C)(C)C[C@H]2C3=CC[C@@H]4[C@@]5(C)CC[C@H](O)C(C)(C)[C@@H]5CC[C@@]4(C)[C@]3(C)CC[C@@]12C(=O)O [Reduced Lantadene A] ?
[reply] 8.91

[ask] # input compound: CC(C)=CC(=O)O[C@@H]1CC(C)(C)C[C@H]2C3=CC[C@@H]4[C@@]5(C)CC[C@H](O)C(C)(C)[C@@H]5CC[C@@]4(C)[C@]3(C)CC[C@@]12C(=O)O [Reduced Lantadene B] ; wanted: its TGI
[reply] 39.8

---

System: CAKI-1
Test: Growth inhibition of human CAKI-1 cells assessed as cell growth at 10^-7 M by sulforhodamine B assay
Type: functional
Details: read-out: Activity
Observation Type: growth at 0.1 µM (%)
Enter your answer as a number in %; do not include the unit.

[ask] Query (compound): CC(C)=CC(=O)O[C@@H]1CC(C)(C)C[C@H]2C3=CC[C@@H]4[C@@]5(C)CC[C@H](O)C(C)(C)[C@@H]5CC[C@@]4(C)[C@]3(C)CC[C@@]12C(=O)O ; field requested: growth at 0.1 µM
[reply] 98

[ask] Using the record for CC1(C)C[C@@H](O)[C@]2(C(=O)O)CC[C@]3(C)C(=CC[C@@H]4[C@@]5(C)C/C(=C\C=C\c6ccccc6)C(=O)C(C)(C)[C@@H]5CC[C@]43C)[C@@H]2C1 , report its growth at 0.1 µM.
[reply] 97

[ask] Look up growth at 0.1 µM for this compound: CC(C)=CC(=O)O[C@@H]1CC(C)(C)C[C@H]2C3=CC[C@@H]4[C@@]5(C)CCC(=O)C(C)(C)[C@@H]5CC[C@@]4(C)[C@]3(C)CC[C@@]12C(=O)O
[reply] 93

[ask] Any idea what its growth at 0.1 µM is? The compound is C/C=C(/C)C(=O)O[C@@H]1CC(C)(C)C[C@H]2C3=CC[C@@H]4[C@@]5(C)CCC(=O)C(C)(C)[C@@H]5CC[C@@]4(C)[C@]3(C)CC[C@@]12C(=O)O
[reply] 94

[ask] Fill in the blank: the reported growth at 0.1 µM of C/C=C(/C)C(=O)O[C@@H]1CC(C)(C)C[C@H]2C3=CC[C@@H]4[C@@]5(C)CC[C@H](O)C(C)(C)[C@@H]5CC[C@@]4(C)[C@]3(C)CC[C@@]12C(=O)O is ____.
[reply] 96

---

Tested on: SF-539
Assay: Growth inhibition of human SF539 cells assessed as cell growth at 10^-4 M by sulforhodamine B assay
Type: functional
Conditions: read-out: Activity
Decision: growth at 100 µM >= -40% yields Y, all other cases yield N.

[ask] Hello, I need to know if CC(C)=CC(=O)O[C@@H]1CC(C)(C)C[C@H]2C3=CC[C@@H]4[C@@]5(C)CCC(=O)C(C)(C)[C@@H]5CC[C@@]4(C)[C@]3(C)CC[C@@]12C(=O)O has measured growth at 100 µM not below -40%. Thanks!
[reply] N

[ask] Determine whether measured growth at 100 µM meets or exceeds -40% for CC(C)=CC(=O)O[C@@H]1CC(C)(C)C[C@H]2C3=CC[C@@H]4[C@@]5(C)CC[C@H](O)C(C)(C)[C@@H]5CC[C@@]4(C)[C@]3(C)CC[C@@]12C(=O)O
[reply] Y

[ask] Please indicate if the recorded growth at 100 µM for C/C=C(/C)C(=O)O[C@@H]1CC(C)(C)C[C@H]2C3=CC[C@@H]4[C@@]5(C)CCC(=O)C(C)(C)[C@@H]5CC[C@@]4(C)[C@]3(C)CC[C@@]12C(=O)O meets or exceeds -40%.
[reply] Y

[ask] Can C/C=C(/C)C(=O)O[C@@H]1CC(C)(C)C[C@H]2C3=CC[C@@H]4[C@@]5(C)CC[C@H](O)C(C)(C)[C@@H]5CC[C@@]4(C)[C@]3(C)CC[C@@]12C(=O)O be said to have growth at 100 µM at or above -40%?
[reply] N

[ask] Hi, just wondering whether CC1(C)C[C@@H](O)[C@]2(C(=O)O)CC[C@]3(C)C(=CC[C@@H]4[C@@]5(C)C/C(=C\C=C\c6ccccc6)C(=O)C(C)(C)[C@@H]5CC[C@]43C)[C@@H]2C1 shows growth at 100 µM of -40% or higher.
[reply] N
